Would you mind telling me the reported IC50 of each entry?
- Assay notes: Inhibition of West Nile virus NS2B-NS3 protease using 2-Abz-Gly-Leu-Lys-Arg-Gly-Gly-[…]-Tyr-NH2 as substrate preincubated with protein for 15 mins followed by substrate addition measured for 15 mins by FRET assay
The response must be a number in nM with no trailing unit.

Value lookup for IC50; key = N=C(N)NCCC[C@H](NC(=O)c1cccs1)C(=O)N[C@@H](CCCCN)C(=O)N[C@@H](C(N)=O)c1ccc(OCc2ccccc2)cc1 296

Then N=C(N)NCCC[C@H](NC(=O)c1ccccc1)C(=O)N[C@@H](CCCCN)C(=O)N[C@@H](C(N)=O)c1ccc(OCc2ccc(F)cc2)cc1 ? 349

Item: N=C(N)NCCC[C@H](NC(=O)c1nccs1)C(=O)N[C@@H](CCCCN)C(=O)N[C@@H](C(N)=O)c1ccc(OCc2ccccc2)cc1 158

Try N=C(N)NCCC[C@H](NC(=O)c1cccs1)C(=O)N[C@@H](CCCCN)C(=O)N[C@@H](C(N)=O)c1ccc(OCc2ccc(Br)cc2)cc1 next. 150

Taken from ChEMBL document CHEMBL3739314.
